Origin of the recorded values: PubChem BioAssay

assay: yeast growth modulation, basal conditions, primary screen, YJM789 clinical isolate, OD600, 24 h (AID 1089);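 note: growth of clinical yeast isolate S. cerevisiae YJM 789 seeded 1000 cells per well; test concentration not given here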; details: S. cerevisiae YJM789 growth, higher = more signal, called active from +8 up or from −8 down
Each entry below carries its reported z-score.
// no unit string in output, number only

Illustrative cases are given below, each with its answer.
smiles	z-score
C[C@H]1CC[C@H]2C(=O)O[C@H](CO)CN2[C@@H]1c1ccc(Br)cc1	-1.57
CC(C)[C@@H](OCc1ccccc1)[C@H](C)C=NO[C@@H](C)c1cn([C@H](CO)Cc2ccccc2)nn1	-2.32
C=CC[C@@H]1C=C[C@H](ON=C(C)CCN2CCCc3nc(C)c(C)cc32)[C@@H](CO)O1	-0.367

Note: attention shifts to another entry.
Task item: # return recorded z-score for input CC(=O)OC[C@H]1O[C@@H](ON=C(C)CCN2CCCCc3nc(C)c(C)cc32)[C@H](OC(C)=O)[C@@H](OC(C)=O)[C@@H]1OC(C)=O
Reply: -0.61
